Exercise: state measured protein stability index for each of the variants provided.
B1: CCND1 (parent)
chain: PEAEENKQIIRKHAQTFVALCATD

- Variants of: B1
- experiment summary: protein stability index of a GFP-peptide fusion (GPS, HEK-293T) (PSI 1-6); higher = more stable;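 further: lentivirally expressed fusions sorted by FACS into six bins by GFP to DsRed ratio, PSI derived from sequencing read proportions per bin multiplied by bin number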
- cond: c terminus: a fixed tail appended
Lab note: record the figure alone, no unit after it.

protein stability index in this record for PTAEENKQIIRKHAQTFVALCATD [E2T] : 2.29

protein stability index in this record for PEAEENKQGIRKHAQTFVALCATD [I9G] : 3.27

protein stability index in this record for PEAEENKQIIRKHAQTEVALCATD [F17E] : 5.24

protein stability index in this record for PEAEENKQIIRKHAQTCVALCATD [F17C] : 4.84

protein stability index in this record for PEAEENKQIIRKHAQTFVALCQTD [A22Q] : 2.91

protein stability index in this record for FEAEENKQIIRKHAQTFVALCATD [P1F] : 2.44

protein stability index in this record for PEAEENKQYIRKHAQTFVALCATD [I9Y] : 2.71

protein stability index in this record for PEAEENKQIIRKHAQSFVALCATD [T16S] : 3.2

protein stability index in this record for PEAEENKQIIEKHAQTFVALCATD [R11E] : 3.76

protein stability index in this record for PEAEENKQIIRKHAQTLVALCATD [F17L] : 4.47

protein stability index in this record for PEAEENKQIIVKHAQTFVALCATD [R11V] : 3.14

protein stability index in this record for PENEENKQIIRKHAQTFVALCATD [A3N] : 3.15

protein stability index in this record for PEAEEWKQIIRKHAQTFVALCATD [N6W] : 2.42

protein stability index in this record for PEAEENKQIIRKHAQTFRALCATD [V18R] : 3.87

protein stability index in this record for PEAEENKQIIRKHAQVFVALCATD [T16V] : 3.85

protein stability index in this record for PSAEENKQIIRKHAQTFVALCATD [E2S] : 2.4

protein stability index in this record for PEAEENKQIIRKHAQNFVALCATD [T16N] : 4.61

protein stability index in this record for PEAEENKQIIRKHAQTFVAQCATD [L20Q] : 2.85

protein stability index in this record for PEAEENKQIIRKTAQTFVALCATD [H13T] : 3.07

protein stability index in this record for PEAEENKQIIRKHAQTFVAKCATD [L20K] : 2.59

protein stability index in this record for PEAEENHQIIRKHAQTFVALCATD [K7H] : 3.36

protein stability index in this record for PEAEENKQIVRKHAQTFVALCATD [I10V] : 3.39
